Target: RSK1 (Homo sapiens)
Sequence (Q15418 whole entry): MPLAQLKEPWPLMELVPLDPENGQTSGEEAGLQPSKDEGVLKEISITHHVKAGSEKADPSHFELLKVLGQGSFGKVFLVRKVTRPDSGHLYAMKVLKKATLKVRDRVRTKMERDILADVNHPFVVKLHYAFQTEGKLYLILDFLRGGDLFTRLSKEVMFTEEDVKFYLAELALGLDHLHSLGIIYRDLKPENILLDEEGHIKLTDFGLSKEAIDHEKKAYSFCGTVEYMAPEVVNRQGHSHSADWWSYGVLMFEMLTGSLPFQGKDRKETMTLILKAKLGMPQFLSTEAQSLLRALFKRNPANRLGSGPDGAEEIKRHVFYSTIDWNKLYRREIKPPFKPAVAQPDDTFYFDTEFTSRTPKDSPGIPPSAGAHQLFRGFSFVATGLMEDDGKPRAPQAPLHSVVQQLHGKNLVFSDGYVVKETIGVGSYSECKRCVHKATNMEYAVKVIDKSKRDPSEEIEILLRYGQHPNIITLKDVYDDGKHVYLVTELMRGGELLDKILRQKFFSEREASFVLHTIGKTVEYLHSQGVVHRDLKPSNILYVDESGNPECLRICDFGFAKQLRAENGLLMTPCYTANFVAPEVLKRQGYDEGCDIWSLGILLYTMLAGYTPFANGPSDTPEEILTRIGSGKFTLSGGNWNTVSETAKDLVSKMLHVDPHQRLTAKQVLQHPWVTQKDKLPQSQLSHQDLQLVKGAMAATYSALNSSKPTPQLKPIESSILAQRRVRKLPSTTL
Some compounds, each annotated with its measured IC50.
Write the value in µM as a bare number.

INSERT INTO assay_data (compound, study_target, endpoint_result) VALUES
  ('COc1cc(N2CCN(C)CC2)ccc1-c1cc(Nc2cnc(C#N)cn2)n[nH]1 [Comparator Ex. 2, reference compound]', 'RSK1 (Homo sapiens)', 0.259),
  ('CN1CCC12CN(c1ccc(-n3cnc(Nc4cnc(C#N)cn4)c3)cc1)C2', 'RSK1 (Homo sapiens)', 6.78),
  ('CN(C)[C@@H]1CCN(c2ccc(-n3cnc(Nc4cnc(C#N)cn4)c3)nc2)C1', 'RSK1 (Homo sapiens)', 4.47),
  ('CCNCc1ccc(-c2cc(Nc3cnc(C#N)cn3)n[nH]2)c(OC)c1 [Comparator Ex. 3, reference compound]', 'RSK1 (Homo sapiens)', 0.57),
  ('CN1CCN(c2ccc(-n3cnc(Nc4cnc(C#N)cn4)c3)cc2)CC1', 'RSK1 (Homo sapiens)', 9.45);

Item under review: C[C@@H]1C[C@@H](N2CCC2)CN1c1ccc(-n2cnc(Nc3cnc(C#N)cn3)c2)cc1 . Reported IC50?
3.55

What IC50 value was documented for this compound, COc1cccc(OCCCN)c1-c1cc(Nc2cnc(C#N)cn2)n[nH]1 [Comparator Ex. 1, reference compound] ?
0.02

What value of measured IC50 is listed for COc1cc(C2(F)CCN(C)CC2)ccc1-c1cc(Nc2cnc(C#N)cn2)n[nH]1 [Comparator Ex. 4, reference compound] ?
0.329

----------
Reported efflux ratio at 60 min, 1 μM values follow for various molecules
Target: P-glycoprotein (P-gp, MDR1) (Homo sapiens, UniProt P08183)
Sequence (P08183 whole entry): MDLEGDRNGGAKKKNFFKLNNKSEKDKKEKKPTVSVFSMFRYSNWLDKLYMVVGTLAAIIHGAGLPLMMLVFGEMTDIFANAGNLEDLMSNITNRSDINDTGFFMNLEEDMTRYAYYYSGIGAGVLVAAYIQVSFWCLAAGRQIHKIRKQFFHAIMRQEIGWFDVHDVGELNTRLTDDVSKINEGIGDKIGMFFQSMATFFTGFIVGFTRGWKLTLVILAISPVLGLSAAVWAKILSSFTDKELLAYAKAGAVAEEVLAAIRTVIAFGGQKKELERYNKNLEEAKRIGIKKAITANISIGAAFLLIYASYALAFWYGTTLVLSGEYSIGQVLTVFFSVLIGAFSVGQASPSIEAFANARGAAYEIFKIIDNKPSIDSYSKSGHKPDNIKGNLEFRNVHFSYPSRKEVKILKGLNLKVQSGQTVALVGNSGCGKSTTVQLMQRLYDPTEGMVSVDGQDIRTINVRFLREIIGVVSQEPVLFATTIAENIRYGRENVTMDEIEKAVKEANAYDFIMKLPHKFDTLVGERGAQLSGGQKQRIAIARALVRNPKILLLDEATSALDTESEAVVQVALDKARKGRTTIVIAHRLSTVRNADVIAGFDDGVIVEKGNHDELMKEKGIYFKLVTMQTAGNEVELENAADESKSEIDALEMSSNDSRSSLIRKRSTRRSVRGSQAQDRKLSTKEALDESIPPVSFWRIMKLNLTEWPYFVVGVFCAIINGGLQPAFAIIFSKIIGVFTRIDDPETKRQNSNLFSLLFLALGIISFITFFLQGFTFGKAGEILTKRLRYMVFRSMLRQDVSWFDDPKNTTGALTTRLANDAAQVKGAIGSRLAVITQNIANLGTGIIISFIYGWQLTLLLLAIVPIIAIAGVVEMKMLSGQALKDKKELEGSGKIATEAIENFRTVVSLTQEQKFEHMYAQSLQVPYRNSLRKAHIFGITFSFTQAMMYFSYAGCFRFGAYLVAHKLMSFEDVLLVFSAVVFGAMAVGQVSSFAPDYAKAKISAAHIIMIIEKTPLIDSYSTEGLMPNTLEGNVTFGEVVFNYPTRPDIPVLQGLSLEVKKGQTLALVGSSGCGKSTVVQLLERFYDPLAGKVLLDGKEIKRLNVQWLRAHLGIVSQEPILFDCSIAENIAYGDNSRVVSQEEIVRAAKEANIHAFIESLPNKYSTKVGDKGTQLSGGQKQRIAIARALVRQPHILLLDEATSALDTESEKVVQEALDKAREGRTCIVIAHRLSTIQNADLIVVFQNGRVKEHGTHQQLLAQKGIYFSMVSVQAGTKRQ
Assay: in vitro
Details: dog, MDCK-MDR1, pH 7.4

Example cases with answers are listed next.
INSERT INTO results (molecule, quantity_measured, endpoint_result) VALUES
  ('N#Cc1cnc(Nc2cn(-c3ccc(N4CCN(CCF)CC4)cc3)cn2)cn1', 'efflux ratio at 60 min, 1 μM', 0.7),
  ('COc1cc(C2(F)CCN(C)CC2)ccc1-c1cc(Nc2cnc(C#N)cn2)n[nH]1 [Comparator Ex. 4, reference compound]', 'efflux ratio at 60 min, 1 μM', 16);

I have this molecule here, N#Cc1cnc(Nc2cn(-c3ccc(N4CCN(CCC(F)(F)F)CC4)cc3)cn2)cn1 , and I need its recorded efflux ratio at 60 min, 1 μM.
0.9

----------
Measured IC50 of individual entries
Target: RSK4 (Homo sapiens, UniProt Q9UK32)
Construct: purchased Eurofins (KinaseProfiler service)
Sequence (Q9UK32 whole entry): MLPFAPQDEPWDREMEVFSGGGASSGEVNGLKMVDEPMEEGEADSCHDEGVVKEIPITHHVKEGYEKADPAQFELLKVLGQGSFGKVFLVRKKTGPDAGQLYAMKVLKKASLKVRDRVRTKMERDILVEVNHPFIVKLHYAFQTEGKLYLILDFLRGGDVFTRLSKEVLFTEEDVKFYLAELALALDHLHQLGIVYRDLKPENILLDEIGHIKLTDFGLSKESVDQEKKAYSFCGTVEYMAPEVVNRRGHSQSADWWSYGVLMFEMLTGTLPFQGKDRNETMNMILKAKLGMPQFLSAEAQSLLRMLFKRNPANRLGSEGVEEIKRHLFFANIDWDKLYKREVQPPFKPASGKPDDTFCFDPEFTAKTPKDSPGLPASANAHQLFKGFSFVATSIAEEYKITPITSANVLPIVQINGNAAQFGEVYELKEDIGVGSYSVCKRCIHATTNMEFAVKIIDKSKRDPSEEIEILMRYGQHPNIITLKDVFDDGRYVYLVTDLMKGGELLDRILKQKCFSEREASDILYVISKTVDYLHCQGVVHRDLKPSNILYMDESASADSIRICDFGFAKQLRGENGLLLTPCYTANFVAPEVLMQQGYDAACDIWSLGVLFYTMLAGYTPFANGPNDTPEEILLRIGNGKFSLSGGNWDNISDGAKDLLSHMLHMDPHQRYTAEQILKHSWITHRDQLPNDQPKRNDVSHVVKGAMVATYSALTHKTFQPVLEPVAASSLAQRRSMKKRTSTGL
Experiment: RSK1-4 kinase assay (Eurofins KinaseProfiler, radiometric): RSK4
Type: biochemical
Conditions: approximately ATP Km
State just the number; it will be interpreted in nM.

INSERT INTO measurements (molecule, quantity_measured, endpoint_result) VALUES
  ('COc1cc(N2CCN(C)CC2)ccc1-c1cc(Nc2cnc(C#N)cn2)n[nH]1 [Comparator Ex. 2, reference compound]', 'IC50', 77),
  ('CN1CCC(F)(c2ccc(-n3cnc(Nc4cnc(C#N)cn4)c3)cc2)CC1', 'IC50', 4960),
  ('COc1cccc(OCCCN)c1-c1cc(Nc2cnc(C#N)cn2)n[nH]1 [Comparator Ex. 1, reference compound]', 'IC50', 5);

# IC50 lookup, item CCNCc1ccc(-c2cc(Nc3cnc(C#N)cn3)n[nH]2)c(OC)c1 [Comparator Ex. 3, reference compound]
163

Sample COc1cc(C2(F)CCN(C)CC2)ccc1-c1cc(Nc2cnc(C#N)cn2)n[nH]1 [Comparator Ex. 4, reference compound] — what was its IC50?
58

May I ask what IC50 has been recorded for CN(C)[C@@H]1CCN(c2ccc(-n3cnc(Nc4cnc(C#N)cn4)c3)nc2)C1 ?
3140
